System: PIK3CA
Conditions: concentration: 1 μM, replicates: in singlicate; n = 1;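 also: KINOMEscan kinase panel screen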
readout.type: %Inh (%)
One number for each entry, in %.

Give %Inh for each listed item.
1. Clc1cc(Cl)cc(Nc2ccnc(Nc3cc(Cl)cc(Cl)c3)n2)c1
2. CC1=C(C(=O)Nc2cc3cn[nH]c3cc2F)C(c2ccc(C(F)(F)F)cc2)CC(=O)N1 (stereo not drawn)

Solution:
1. 5
2. 0

====

System: TRPM6
Details: concentration: 1 μM, replicates: in singlicate; n = 1
readout.type: %Inh (%)
One number for each entry, in %.

Solved entries:
Cn1ccc2ncnc(Oc3cccc(C(=O)Nc4ccccc4)c3)c21; 0
COc1cc2nccc(Nc3ccc(NC(=O)c4ccc(C)cc4)c(O)c3)c2cc1OC.Cl [GW440132]; 5

Give %Inh for each listed item.
1. CN(C)CCN(C)C(=O)c1cc(-c2ccncc2)c(-c2ccc(Cl)c(O)c2)o1.Cl.Cl [SB-710397]
2. Fc1cc(Cl)ccc1Nc1ccnc2cc(-c3ccc(CN4CCCCC4)o3)ccc12 [GW560116]
3. O=C(Nc1n[nH]c2nc(-c3nccs3)c(Br)cc12)C1CC1 [SB-742251]

Solution:
[27, 0, 0]

Give %Inh for each listed item.
1. COc1cccc(-c2cc(-c3c[nH]nc3-c3ccccn3)ccn2)c1 [GW680338]
2. COc1ccc(CNC(=O)NC2CCN(c3ccnc(Nc4cc(OC)c(OC)c(OC)c4)n3)C2)cc1 (stereo not shown) [GSK1379748]
3. Cc1cccc(-c2cc(Nc3ccncc3)c3ccccc3n2)n1 [GSK223675]
4. Cl.O=C(Nc1cccc(-c2nn3ncccc3c2-c2ccnc(Nc3cccnc3)n2)c1)c1c(F)cccc1F [GSK312879]

Solution:
0
18
0
28

Give %Inh for each listed item.
1. Cc1cc(-c2ccc3c(c2)CC[C@@H](N[C@@H](C)c2ccccc2)C3)cnc1N.Cl [GW412617]
2. COc1ccc2nc(-c3cccc(C)n3)nc(Nc3ccncc3)c2c1 [GSK204919]
3. CC(=O)Nc1nc2cnc(Nc3cc(NC(=O)c4cccc(CCC#N)c4)ccc3C)nc2s1
4. Cn1ccc2ncnc(Oc3ccc(NC(=O)Nc4ccccc4)cc3)c21
5. Cc1ccc(NC(=O)Nc2cc(C(C)(C)C)nn2-c2ccccc2)cc1 [GSK1014915]
6. Fc1cccc(COc2nnc(-c3ccc4c(c3)CCO4)o2)c1

Solution:
16
0
3
0
24
0

Give %Inh for each listed item.
1. COc1ccc(Nc2nccc(NCCNC(=O)Nc3ccccc3F)n2)cc1 [GSK1379901]
2. CC(C)(C)c1ccc(C(=O)Nc2cn3cc(-c4cccnc4)ccc3n2)cc1
3. Cl.c1ccc(-c2n[nH]cc2-c2ccnc(-c3ccc(CN4CCOCC4)cc3)c2)nc1 [GW776245]
4. O=C(Nc1ccccc1)Nc1cccc(Oc2ccc3nccn3n2)c1

Solution:
11
0
0
0
